# pKd annotations
Target Desc: T1, IL1RAP (Mus musculus (Mouse), UniProt Q61730)
T1 chain: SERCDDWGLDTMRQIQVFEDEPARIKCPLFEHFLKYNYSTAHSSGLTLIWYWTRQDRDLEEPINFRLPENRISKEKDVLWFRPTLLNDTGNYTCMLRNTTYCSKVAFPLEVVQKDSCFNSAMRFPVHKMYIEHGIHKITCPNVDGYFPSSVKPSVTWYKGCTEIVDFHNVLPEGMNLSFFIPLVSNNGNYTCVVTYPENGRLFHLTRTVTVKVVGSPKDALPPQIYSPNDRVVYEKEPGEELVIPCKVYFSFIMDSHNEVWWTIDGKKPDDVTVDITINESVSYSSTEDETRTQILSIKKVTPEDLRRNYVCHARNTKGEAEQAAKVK
Test Details: SPR equilibrium 25C, PTPRD Ig1-Fn1 analyte
Scale note: pKd = -log10(concentration in M).

Below are worked cases with known answers.
>>> obs_value("PTPRD_A9B1 (protein) ETPPRFTRTPVDQTGVSGGVASFICQATGDPRPKIVWNKKGKKVSNQRFEVIEFDDGSGSVLRIQPLRTPRDEAIYECVASNNVGEISVSTRLTVLREDQIPRGFPTIDMGPQLKVVERTRTATMLCAASGNPDPEITWFKDFLPVDTSNNNGRIKQLRSESIGGTPIRGALQIEQSEESDQGKYECVATNSAGTRYSAPANLYVRELREVRRVPPRFSIPPTNHEIMPGGSVNITCVAVGSPMPYVKWMLGAEDLTPEDDMPIGRNVLELNDVRQSANYTCVAMSTLGVIEAIAQITVKA")
6.17
>>> obs_value("PTPRD_A6B0 (protein) ETPPRFTRTPVDQTGVSGGVASFICQATGDPRPKIVWNKKGKKVSNQRFEVIEFDDGSGSVLRIQPLRTPRDEAIYECVASNNVGEISVSTRLTVLREDQIPRGFPTIDMGPQLKVVERTRTATMLCAASGNPDPEITWFKDFLPVDTSNNNGRIKQLRSGGTPIRGALQIEQSEESDQGKYECVATNSAGTRYSAPANLYVRVRRVPPRFSIPPTNHEIMPGGSVNITCVAVGSPMPYVKWMLGAEDLTPEDDMPIGRNVLELNDVRQSANYTCVAMSTLGVIEAIAQITVKA")
5.64
>>> obs_value("PTPRD_A3B1 (protein) ETPPRFTRTPVDQTGVSGGVASFICQATGDPRPKIVWNKKGKKVSNQRFEVIEFDDGSGSVLRIQPLRTPRDEAIYECVASNNVGEISVSTRLTVLREDQIPRGFPTIDMGPQLKVVERTRTATMLCAASGNPDPEITWFKDFLPVDTSNNNGRIKQLRSESIGALQIEQSEESDQGKYECVATNSAGTRYSAPANLYVRELREVRRVPPRFSIPPTNHEIMPGGSVNITCVAVGSPMPYVKWMLGAEDLTPEDDMPIGRNVLELNDVRQSANYTCVAMSTLGVIEAIAQITVKA")
6.29

# context switch: different binder, same pKd
Note to self: pKd recorded for PTPRD_A6B1 (protein) ETPPRFTRTPVDQTGVSGGVASFICQATGDPRPKIVWNKKGKKVSNQRFEVIEFDDGSGSVLRIQPLRTPRDEAIYECVASNNVGEISVSTRLTVLREDQIPRGFPTIDMGPQLKVVERTRTATMLCAASGNPDPEITWFKDFLPVDTSNNNGRIKQLRSGGTPIRGALQIEQSEESDQGKYECVATNSAGTRYSAPANLYVRELREVRRVPPRFSIPPTNHEIMPGGSVNITCVAVGSPMPYVKWMLGAEDLTPEDDMPIGRNVLELNDVRQSANYTCVAMSTLGVIEAIAQITVKA was 6.14
